target: human Trk A kinase (Homo sapiens)
Sequence (P04629 442-796): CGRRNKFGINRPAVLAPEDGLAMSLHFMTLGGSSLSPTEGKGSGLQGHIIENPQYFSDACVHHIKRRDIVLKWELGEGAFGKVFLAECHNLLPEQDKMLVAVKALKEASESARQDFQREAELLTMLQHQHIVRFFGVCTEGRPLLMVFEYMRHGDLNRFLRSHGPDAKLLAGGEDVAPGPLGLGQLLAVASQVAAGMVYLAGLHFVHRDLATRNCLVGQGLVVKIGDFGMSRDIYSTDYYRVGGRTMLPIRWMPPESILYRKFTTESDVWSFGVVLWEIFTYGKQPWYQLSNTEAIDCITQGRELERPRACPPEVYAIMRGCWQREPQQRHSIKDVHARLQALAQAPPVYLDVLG
MEASURED PROPERTY: pIC50
// pIC50: -log10(molar conc.)

Prompt: Check human Trk A kinase (Homo sapiens) data and give pIC50 for "C[C@H](Nc1ncc(Cl)c(Nc2cc(C3CC3)[nH]n2)n1)c1ccc(F)cn1" .
Completion: 8.10
